experimental system: biotinylated SARS-CoV-2 S1 variant B.1.351 (Example 5) (SARS-CoV-2) (UniProt P0DTC2)
experiment description: phage ELISA screening
assay metric: ELISA
No unit in the answer, please; the number alone is enough.

binder	ELISA
11-6 (antibody, V domains shown) VH: QVQLVESGGGVVQPGRSLRLSCAASGFTFGTYAMHWVRQAPGKGLEWVAVVSTEGGTTYYADSVKGRFTISRDNSKNTLYLQMNSLRAEDTAVYYCAGEYYDSSGSSIDYWGQGTLVTVSS VL: EIVLTQSPATLSLSPGERATLSCRASQSVDSSLAWYQQKPGQAPRLLIYDASNRATGIPARFSGSGSGTDFTLTISSLEPEDFAVYYCQQQSNWPGTFGGGTKVEIK	12.6

Turning now to a further binder:
Give me measured ELISA, please, for this binder: 12-21 (antibody, V domains shown) VH: QVQLVESGGGVVQPGRSLRLSCAASGFSFGGYGMHWVRQAPGKGLEWVAVISYDGSNKYYADSVKGRFTISRDNSKNTLYLQMNSLRAEDTAVYYCARPKGGNYWNAFDIWGQGTLVTVSS VL: EIVLTQSPATLSLSPGERATLSCRASQSVNSDLAWYQQKPGQAPRLLIYDASNRATGIPARFSGSGSGTDFTLTISSLEPEDFAVYYCQERSLFGGGTKVEIK
11.7
